Ref: ChEMBL document CHEMBL1124299

Species on record: Rattus norvegicus
Measurement Protocol: Inhibition of U-46,619-induced contraction of Rat thoracic aorta in the presence of indomethacin (control)
Type: functional
Observed Property: pD2

INSERT INTO results (molecule, measured_result) VALUES
  ('COc1ccc(CN2CCc3cc(O)c(O)cc3C2Cc2cc(OC)c(OC)c(OC)c2)cc1 (stereo not given)', 8.07),
  ('COc1cc(CC2c3cc(O)c(O)cc3CCN2Cc2ccc([N+](=O)[O-])cc2)cc(OC)c1OC (stereo not given)', 8.21),
  ('COc1cc(CC2c3cc(O)c(O)cc3CCN2Cc2ccccc2)cc(OC)c1OC (stereo not given)', 8.11),
  ('COc1cc(CC2c3cc(O)c(O)cc3CCN2Cc2ccc(N)cc2)cc(OC)c1OC (stereo not given)', 8.26),
  ('COc1cc(CC2c3cc(O)c(O)cc3CCN2Cc2ccc(Cl)cc2)cc(OC)c1OC (stereo not given)', 8.1);
